OD450 nm values by entry
- assayedTarget: Human CD79B Protein, His Tag (MALS verified), Cat. No. #CDB-H52H3-1mg, ACRO (human) (UniProt P40259)
- Sequence (P40259 29-159 limits assumed): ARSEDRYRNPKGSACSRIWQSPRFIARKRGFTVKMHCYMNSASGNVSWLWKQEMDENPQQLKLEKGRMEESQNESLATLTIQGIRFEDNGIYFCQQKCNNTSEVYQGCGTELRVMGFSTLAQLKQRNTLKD
- experiment: ELISA on coated antigen, anti-myc detection; 2ng antibody added
Value expressed in OD450; do not type the unit.

Guide cases for OD450 nm, answers given:
binder	OD450 nm, OD450
anti-CD79B single-domain antibody JYB10 (VHH, Alpaca VHH from a phage library; ELISA detected with an anti-myc antibody; a myc tag is not described; not shown: His-tag protein at the C-terminal end) VHH: DVQLQESGGGLVQPGGSLSLSCAASISSSSIWVRAWHRQAPGKQRELVAAINNDGQTMYADSVKGRFTISRDNAKTTVSLQMNSLKPEDTAVYYCNVVTPKGHQYWGQGTQVTVSS	0.0517
anti-CD79B single-domain antibody JYB4 (VHH, Alpaca VHH from a phage library; not shown: His-tag protein at the C-terminal end) VHH: DVQLQESGGGLVQPGGSLRLSCAASGFAFSLYAMSWARQAPGKGLEWVSDIYGDDDSRRNYADSVKGRFTISRDNAKNTVYLQMTNLQPEDTALYYCGKGRDGTRWSAREYEYRGQGTQVTVSS	0.0519

Measured OD450 nm, anti-CD79B single-domain antibody JYB14 (VHH, Alpaca VHH from a phage library; ELISA detected with an anti-myc antibody; a myc tag is not described; not shown: His-tag protein at the C-terminal end) VHH: DVQLQESGGGLVQPGGSLSLTCTASISSLTIWVRAWHRQAPGKQRELVAAINSDGQTMYADSVKGRFTISRDNAKTTVSLQMDSLKPEDTAVYYCNVVTPNGQQYWGQGTQVTVSS : 0.0507
